These data points were gathered from patent US20250206732A1.

Target: AsPC-1 HiBiT-KRASG12D (Homo sapiens, UniProt P01116, G12D)
Construct: insert the HiBiT tag onto the N-terminus of one or more of the endogenous KRAS alleles; endogenous in cells; host or cells: AsPC-1 (ATCC CRL-1682), CRISPR-Cas9 knock-in clone, one tagged allele
Sequence (P01116 1-188 isoform P01116-2 G12D): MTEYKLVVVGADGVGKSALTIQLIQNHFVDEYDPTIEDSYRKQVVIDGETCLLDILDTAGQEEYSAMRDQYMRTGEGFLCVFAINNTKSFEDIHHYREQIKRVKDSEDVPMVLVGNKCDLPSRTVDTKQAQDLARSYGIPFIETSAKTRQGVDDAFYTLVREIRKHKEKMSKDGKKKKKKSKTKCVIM
Assay: HiBiT degradation assay (G12D), AsPC-1 HiBiT-KRASG12D cells
Assay type: cell-based
Conditions: ASPC1, AsPC-1 HiBiT-KRASG12D cells, 24 hours treatment, maximum degradation observed
MEASURED_METRIC: Dmax

COMPOUND	VALUE
CCc1cccc2cc(O)cc(-c3ncc4c(N5CC6CCC(C5)N6)nc(OC[C@@H]5CC[C@]6(COC(=O)N7CCN(c8cc([C@H](C(=O)N9C[C@H](O)C[C@H]9C(=O)N[C@@H](C)c9ccc(-c%10scnc%10C)cc9)C(C)C)on8)CC7)CCCN56)nc4c3F)c12 [Compound 342]	80 to 100%
CCc1cccc2cc(O)cc(-c3ncc4c(N5CC6CCC(C5)N6)nc(OC[C@@H]5CC[C@@H](COC(=O)N6CC7(C6)CN(c6cc([C@H](C(=O)N8C[C@H](O)C[C@H]8C(=O)N[C@@H](C)c8ccc(-c9scnc9C)cc8)C(C)C)on6)C7)N5C)nc4c3F)c12 [Compound 213]	80 to 100%
CCc1cccc2cc(O)cc(-c3ncc4c(N5CC6CCC(C5)N6)nc(OCCN5CCC(CCC6CN(c7cc([C@H](C(=O)N8C[C@H](O)C[C@H]8C(=O)N[C@@H](C)c8ccc(-c9scnc9C)cc8)C(C)C)on7)C6)CC5)nc4c3F)c12 (single isomer, unassigned) [Compound 250]	80 to 100%
CCc1cccc2cc(O)cc(-c3ncc4c(N5CC6CCC(C5)N6)nc(OC[C@]56CCCN5[C@H](COC(=O)N5CCN(c7cc([C@H](C(=O)N8C[C@H](O)C[C@H]8C(=O)N[C@@H](C)c8ccc(-c9scnc9C)cc8)C(C)C)on7)C[C@H]5C)CC6)nc4c3F)c12 [Compound 120]	80 to 100%
C#Cc1c(F)ccc2cc(O)cc(-c3ncc4c(N5CC6CCC(C5)N6)nc(OCCN5CCC(CC6(F)CCN(CC(=O)N[C@H](C(=O)N7C[C@H](O)C[C@H]7C(=O)N[C@@H](C)c7ccc(-c8scnc8C)cc7)C(C)(C)C)CC6)CC5)nc4c3F)c12 [Compound 157]	80 to 100%
CCc1cccc2cc(O)cc(-c3ncc4c(N5CC6CCC(C5)N6)nc(OCCN5CCC(F)(COc6cc([C@H](C(=O)N7C[C@H](O)C[C@H]7C(=O)N[C@@H](C)c7ccc(-c8scnc8C)cc7)C(C)C)on6)CC5)nc4c3F)c12 [Compound 337]	80 to 100%
CCc1cccc2cc(O)cc(-c3ncc4c(N5CC6CCC(C5)N6)nc(OCCN5CCC6(CC5)CN(c5cc([C@@H](C(=O)N7C[C@H](O)C[C@H]7C(=O)N[C@@H](C)c7ccc(-c8ccnn8C)cc7)C(C)C)on5)C6)nc4c3F)c12 (relative stereo) [Compound 141]	20 to 60%
CCc1cccc2cc(O)cc(-c3ncc4c(N5CC6CCC(C5)N6)nc(OC[C@]56CCCN5[C@H](COC(=O)N5CCN(c7cc([C@@H](C(=O)N8C[C@H](O)C[C@H]8C(=O)N[C@@H](C)c8ccc(-c9scnc9C)cc8)C(C)C)on7)C[C@@H]5C)CC6)nc4c3F)c12 [Compound 133]	< 20%
Cc1ncsc1-c1ccc([C@H](C)NC(=O)[C@@H]2C[C@@H](O)CN2C(=O)[C@@H](c2cc(OCC3CCN(CCOc4nc(N5CC6CCC(C5)N6)c5cnc(-c6cc(O)cc7cccc(C)c67)c(F)c5n4)CC3)no2)C(C)C)cc1 [Compound 60]	60 to 80%
CCc1cccc2cc(O)cc(-c3ncc4c(N5CC6CCC(C5)N6)nc(OCCN5CCC(F)(CC6CCN(c7cc([C@H](C(=O)N8C[C@H](O)C[C@H]8C(=O)N[C@@H](C)c8ccc(-c9scnc9C)cc8)C(C)C)on7)CC6)CC5)nc4c3F)c12 [Compound 239]	80 to 100%
C#Cc1c(F)ccc2cc(O)cc(-c3ncc4c(N5CC6CCC(C5)N6)nc(OCCN5CCC(CN6CCN(c7cc([C@H](C(=O)N8C[C@H](O)C[C@H]8C(=O)N[C@@H](C)c8ccc(-c9ccnn9C)cc8)C(C)C)on7)CC6)CC5)nc4c3F)c12 [Compound 190]	80 to 100%
CCc1cccc2cc(O)cc(-c3ncc4c(N5CC6CCC(C5)N6)nc(OCCN5CCC6(CC5)CN(c5cc([C@H](C(=O)N7C[C@H](O)C[C@H]7C(=O)N[C@@H](C)c7ccc(-c8scnc8C)cc7)C(C)C)on5)C6)nc4c3F)c12 [Compound 16]	80 to 100%
C#Cc1c(F)ccc2cc(O)cc(-c3ncc4c(N5CC6CCC(C5)N6)nc(OCCN5CCC(CC6CCN(c7cc([C@@H](C(=O)N8C[C@H](O)C[C@H]8C(=O)N[C@@H](C)c8ccc(-c9scnc9C)cc8)C(C)C)on7)CC6)CC5)nc4c3F)c12 (single isomer, unassigned) [Compound 308]	60 to 80%
CCc1cccc2cc(O)cc(-c3ncc4c(N5CC6CCC(C5)N6)nc(OC[C@@]56CCCN5[C@H](COC(=O)N5CC(COc7cc([C@@H](C(=O)N8C[C@H](O)C[C@H]8C(=O)N[C@@H](C)c8ccc(-c9scnc9C)cc8)C(C)C)on7)C5)CC6)nc4c3F)c12 [Compound 115]	20 to 60%
Cc1ncsc1-c1ccc([C@H](C)NC(=O)[C@@H]2C[C@@H](O)CN2C(=O)[C@H](c2cc(OC3CN(C(=O)OC[C@@H]4CC[C@@]5(COc6nc(N7CC8CCC(C7)N8)c7cnc(-c8cc(O)cc(Cl)c8C8CC8)c(F)c7n6)CCCN45)C3)no2)C(C)C)cc1 [Compound 322]	60 to 80%
